System: K-562 leukemia
Test: NCI tumour cell line growth inhibition, 48 h
MEASURED PARAMETER: TGI

Consider the reported TGI for these compounds:
COMPOUND | TGI
CC(=O)O[C@H]1C[C@](C)(O)[C@@]23CC([C@@H](OC(=O)C(C)(C)O)[C@@H](OC(C)=O)C2(COC(=O)c2ccccc2)[C@H]1OC(C)=O)C(C)(C)O3 (stereo partly specified) | > 100 µM
CCOC(=O)c1ccc(N(C=O)CCC(=O)CCl)cc1 | > 69.3 µM
CN(C)CC1CCCCCC(Br)C1=O (stereo unspecified) | > 100 µM
NC1=Nc2ccccc2Sc2nc3ccccc3n21 | > 100 µM
O=C1CCNC(=O)NC1 | > 100 µM

Prompt: Data request, read-out TGI, for O=C1CCCC(O)=C1SC1=C(O)CCCC1=O
Response: > 100 µM

Prompt: Let us now turn to CCCCCCCCNC(C)C(O)c1ccc(SC(C)C)cc1 (stereo unspecified)
Response: 3.8 µM

Prompt: Let us now turn to N#Cc1cc([N+](=O)[O-])ccc1NC(=O)C(=O)C(C(=O)c1ccc2ccccc2c1)C1OCc2ccccc21 (stereo unspecified)
Response: 65.2 µM

Prompt: Let us now turn to O=C(Nc1ccc(Nc2ccncc2)cc1)c1ccc(Nc2ccnc3ccc([N+](=O)[O-])cc23)cc1[N+](=O)[O-]
Response: > 100 µM

Prompt: Let us now turn to COc1ccc(-c2nnc(SCC(=O)Nc3ccc(C(=O)/C=C/c4cc(OC)c(OC)c(OC)c4)cc3)n2-c2ccccc2)cc1OC
Response: > 10 µM

Prompt: Let us now turn to CC[C@H](C)[C@H](NC(=O)NC(C)(C)C)C(=O)N(C)[C@H](C[C@@H](OC(C)=O)c1nc(C(=O)N[C@@H](Cc2ccccc2)C[C@H](C)C(=O)OC)cs1)C(C)C
Response: > 25 µM

Prompt: Let us now turn to CN(/N=C/c1ccc(Cl)cc1)C1=NCCCCN1
Response: > 100 µM

Prompt: Let us now turn to CCN(CC)c1ccc2cc(C(N)=O)c(=Nc3ccc(F)cc3)oc2c1
Response: > 100 µM

Prompt: Let us now turn to Cc1ccc2nc3c(n2c1)C(=O)C(=O)c1ccccc1-3
Response: 0.286 µM

Prompt: Let us now turn to C1=CN2C[n+]3ccc4ccccc4c3N=C2c2ccccc21
Response: 12.5 µM

Prompt: Let us now turn to COc1cc2c(c(OC)c1OC)-c1ccc(SC)c(=O)cc1[C@@H](NCc1cccc([N+](=O)[O-])c1)CC2
Response: 2.39 µM
